For each entry below, report its FRET value at saturation value.
Target: RAD52-ssDNA interaction (Homo sapiens, UniProt P43351)
Construct: made in house
Sequence (P43351 whole entry): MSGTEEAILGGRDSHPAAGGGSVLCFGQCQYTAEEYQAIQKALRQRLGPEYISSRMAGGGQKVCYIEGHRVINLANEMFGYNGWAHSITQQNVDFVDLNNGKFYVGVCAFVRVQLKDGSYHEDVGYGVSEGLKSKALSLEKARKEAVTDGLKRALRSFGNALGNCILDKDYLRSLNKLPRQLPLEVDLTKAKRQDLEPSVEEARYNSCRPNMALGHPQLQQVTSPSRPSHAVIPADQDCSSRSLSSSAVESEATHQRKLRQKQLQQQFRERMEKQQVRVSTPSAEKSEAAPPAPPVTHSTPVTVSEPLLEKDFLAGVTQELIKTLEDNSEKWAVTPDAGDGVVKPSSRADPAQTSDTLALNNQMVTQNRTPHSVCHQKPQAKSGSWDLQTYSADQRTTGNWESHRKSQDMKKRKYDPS
Assay: FRET-based ssDNA binding and wrapping assay (RAD52-Cy3-dT30-Cy5 complex)
Details: Table 1
Structures can show the parent of a compound that is named as a salt.
API doc: respond with a numeric literal and nothing else, no unit.

Please report FRET value at saturation with RAD52-ssDNA interaction (Homo sapiens, UniProt P43351) for item O=C(O[C@@H]1Cc2c(O)cc(O)cc2O[C@@H]1c1ccc(O)c(O)c1)c1cc(O)c(O)c(O)c1 [Compound 5, (−)-Epicatechin gallate] .
0.41

Please report FRET value at saturation with RAD52-ssDNA interaction (Homo sapiens, UniProt P43351) for item O=c1c(O)c(-c2ccc(O)c(O)c2)oc2c(O)c(O)cc(O)c12 [Compound 19, Gossypetin] .
0.49

Please report FRET value at saturation with RAD52-ssDNA interaction (Homo sapiens, UniProt P43351) for item COc1cc(N)c(Cl)cc1C(=O)N[C@H]1CCN(CCCOc2ccc(F)cc2)C[C@H]1OC [Compound 16, Cisapride Monohydrate, reference compound] .
0.50

Please report FRET value at saturation with RAD52-ssDNA interaction (Homo sapiens, UniProt P43351) for item C=C1c2cccc(O)c2C(=O)C2=C(O)[C@]3(O)C(=O)C(C(N)=O)=C(O)[C@@H](N(C)C)[C@@H]3[C@@H](O)[C@H]12 [Compound 3, Methacycline Hydrochloride, reference compound] .
0.47

Please report FRET value at saturation with RAD52-ssDNA interaction (Homo sapiens, UniProt P43351) for item Oc1cc(O)c2c(c1)O[C@H](c1ccc(O)c(O)c1)[C@H](O)C2 [Compound 7, (−)-Epicatechin] .
0.51

Please report FRET value at saturation with RAD52-ssDNA interaction (Homo sapiens, UniProt P43351) for item NCCc1cc(O)c(O)cc1O [Compound 14, Oxidopamine] .
0.50

Please report FRET value at saturation with RAD52-ssDNA interaction (Homo sapiens, UniProt P43351) for item O=C1c2ccc(O)c(O)c2C(=O)c2c(O)ccc(O)c21 [Compound 15, Quinalizarin] .
0.51
